Field: Kd. Provide a value for each of the molecules that follow.
Target: BRD4^BD1 (Homo sapiens, UniProt O60885)
Construct: to the isolated BD1 and BD2 domains of BRD2, BRD3 and BRD4
Experiment: competitive fluorescence polarization assay, BRD4 BD1 -/+ presenter protein
Type: binding
Conditions: presence of 15 µM FKBP12; read-out: Binding to BRD4^BD1 + FKBP12 Kd (converted)
Respond numerically; units are nM and should not be typed.

Provide one value: measured Kd of Cc1sc2c(c1C)C(c1ccc(C#CCNC(=O)COCCn3cc(C4CN(Cc5ccccn5)C(=O)C5CCCC4N5S(=O)(=O)c4cc(Cl)cc(Cl)c4)nn3)cc1)=NC(CC(=O)OC(C)(C)C)c1nnc(C)n1-2 (centres unmarked)
8

Provide one value: measured Kd of C=CC1CN(Cc2ccccn2)C(=O)C2CCCC1N2S(=O)(=O)c1ccc(-c2cn(CCOCCNC(=O)CC3N=C(c4ccc(Cl)cc4)c4c(sc(C)c4C)-n4c(C)nnc43)nn2)c(Cl)c1 (centres unmarked)
1700

Provide one value: measured Kd of Cc1sc2c(c1C)C(c1ccc(Cl)cc1)=NC(CC(=O)N1CCN(CCn3cc(COCC4CN(Cc5ccccn5)C(=O)C5CCCC4N5S(=O)(=O)c4cc(Cl)cc(Cl)c4)nn3)CC1)c1nnc(C)n1-2 (centres unmarked)
380

Provide one value: measured Kd of Cc1sc2c(c1C)C(c1ccc(Cl)cc1)=NC(CC(=O)N1CC(CN3CCC(Cn4cc(COCC5CN(Cc6ccccn6)C(=O)C6CCCC5N6S(=O)(=O)c5cc(Cl)cc(Cl)c5)nn4)CC3)C1)c1nnc(C)n1-2 (centres unmarked) [a12d]
40

* * *

Target: BRD4^BD1 (Homo sapiens, UniProt O60885)
Construct: to the isolated BD1 and BD2 domains of BRD2, BRD3 and BRD4
Experiment: competitive fluorescence polarization assay, BRD4 BD1 -/+ presenter protein
Type: binding
Details: ratio of binding in absence or presence of FKBP12
Property label: α BRD4^BD1 (binding cooperativity factor)
Keep it simple and answer with nothing but the number.

Provide one value: measured α BRD4^BD1 (binding cooperativity factor) of Cc1sc2c(c1C)C(c1ccc(Cl)cc1)=NC(CC(=O)N1CCC(N3CCC(n4cc(COCC5CN(Cc6ccccn6)C(=O)C6CCCC5N6S(=O)(=O)c5cc(Cl)cc(Cl)c5)nn4)CC3)CC1)c1nnc(C)n1-2 (centres unmarked)
2.4

Provide one value: measured α BRD4^BD1 (binding cooperativity factor) of Cc1sc2c(c1C)C(c1ccc(Cl)cc1)=NC(CC(=O)NCCOCCOCCn1cc(C3CN(Cc4ccccn4)C(=O)C4CCCC3N4S(=O)(=O)c3cc(Cl)cc(Cl)c3)nn1)c1nnc(C)n1-2 (centres unmarked)
1.8

Provide one value: measured α BRD4^BD1 (binding cooperativity factor) of Cc1sc2c(c1C)C(c1ccc(Cl)cc1)=NC(CC(=O)N1CCC3(CC1)CC(n1cc(C4CN(Cc5ccccn5)C(=O)C5CCCC4N5S(=O)(=O)c4cc(Cl)cc(Cl)c4)nn1)C3)c1nnc(C)n1-2 (centres unmarked) [a13c]
131

Provide one value: measured α BRD4^BD1 (binding cooperativity factor) of Cc1sc2c(c1C)C(c1ccc(C#CCNC(=O)COCCn3cc(COCC4CN(Cc5ccccn5)C(=O)C5CCCC4N5S(=O)(=O)c4cc(Cl)cc(Cl)c4)nn3)cc1)=NC(CC(=O)OC(C)(C)C)c1nnc(C)n1-2 (centres unmarked)
0.3

Provide one value: measured α BRD4^BD1 (binding cooperativity factor) of Cc1sc2c(c1C)C(c1ccc(Cl)cc1)=NC(CC(=O)N1CC(CN3CCC(Cn4cc(C5CN(Cc6ccccn6)C(=O)C6CCCC5N6S(=O)(=O)c5cc(Cl)cc(Cl)c5)nn4)CC3)C1)c1nnc(C)n1-2 (centres unmarked) [a12c]
1.7

* * *

Target: BRD4^BD1 (Homo sapiens, UniProt O60885)
Construct: to the isolated BD1 and BD2 domains of BRD2, BRD3 and BRD4
Assay: competitive fluorescence polarization assay, BRD4 BD1 -/+ presenter protein
Format: binding
Conditions: ratio of binding in absence or presence of FKBP12
Property label: α BRD4^BD1 (binding cooperativity factor)
Keep it simple and answer with nothing but the number.

Provide one value: measured α BRD4^BD1 (binding cooperativity factor) of C=CC1CN(Cc2ccccn2)C(=O)C2CCCC1N2S(=O)(=O)c1cc(Cl)cc(-c2cn(CCOCCOCCNC(=O)CC3N=C(c4ccc(Cl)cc4)c4c(sc(C)c4C)-n4c(C)nnc43)nn2)c1 (stereo not drawn)
0.4

Provide one value: measured α BRD4^BD1 (binding cooperativity factor) of Cc1sc2c(c1C)C(c1ccc(Cl)cc1)=NC(CC(=O)N1CCC(N3CCC(n4cc(C5CN(Cc6ccccn6)C(=O)C6CCCC5N6S(=O)(=O)c5cc(Cl)cc(Cl)c5)nn4)CC3)CC1)c1nnc(C)n1-2 (stereo not drawn)
1.6

Provide one value: measured α BRD4^BD1 (binding cooperativity factor) of Cc1sc2c(c1C)C(c1ccc(Cl)cc1)=NC(CC(=O)NCCOCCn1cc(COC(C)C3CN(Cc4ccccn4)C(=O)C4CCCC3N4S(=O)(=O)c3cc(Cl)cc(Cl)c3)nn1)c1nnc(C)n1-2 (stereo not drawn) [a1e]
1.5

* * *

Biological target: BRD4^BD2 (Homo sapiens, UniProt O60885)
Construct: to the isolated BD1 and BD2 domains of BRD2, BRD3 and BRD4
Test: competitive fluorescence polarization assay, BRD4 BD2 -/+ presenter protein
Format: binding
Settings: absence of FKBP51FK1 (SI Table 3); read-out: Binding to BRD4BD2 - FKBP51FK1 Kd
Field: pKd. Provide a value for each of the molecules that follow.
Entry type: numeric. Quantity: pKd, the -log10 of concentration in molar units.

Provide one value: measured pKd of Cc1sc2c(c1C)C(c1ccc(C#CCNC(=O)COCCn3cc(C4CN(Cc5ccccn5)C(=O)C5CCCC4N5S(=O)(=O)c4cc(Cl)cc(Cl)c4)nn3)cc1)=NC(CC(=O)OC(C)(C)C)c1nnc(C)n1-2 (stereo not shown) [b3c]
6.92

Provide one value: measured pKd of Cc1sc2c(c1C)C(c1ccc(Cl)cc1)=NC(CC(=O)NCCOCCn1cc(COCC3CN(C(C)c4ccccn4)C(=O)C4CCCC3N4S(=O)(=O)c3cc(Cl)cc(Cl)c3)nn1)c1nnc(C)n1-2 (stereo not shown) [a1dj]
6.82

Provide one value: measured pKd of Cc1sc2c(c1C)C(c1ccc(Cl)cc1)=NC(CC(=O)NCCOCCn1cc(COCC3CN(Cc4ccccn4)C(=O)C4CCCC3N4S(=O)(=O)c3cc(Cl)cc(Cl)c3)nn1)c1nnc(C)n1-2 (stereo not shown) [a1d]
6.74

Provide one value: measured pKd of Cc1sc2c(c1C)C(c1ccc(Cl)cc1)=NC(CC(=O)N1CCC3(CC1)CC(n1cc(C4CN(Cc5ccccn5)C(=O)C5CCCC4N5S(=O)(=O)c4cc(Cl)cc(Cl)c4)nn1)C3)c1nnc(C)n1-2 (stereo not shown) [a13c]
5.80

* * *

Biological target: BRD2BD1 (Homo sapiens, UniProt P25440)
Construct: to the isolated BD1 and BD2 domains of BRD2, BRD3 and BRD4
Sequence (P25440 74-180 limits assumed): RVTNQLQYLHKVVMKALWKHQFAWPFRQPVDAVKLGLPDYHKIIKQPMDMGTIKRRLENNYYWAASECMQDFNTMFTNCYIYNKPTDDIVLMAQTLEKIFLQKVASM
Experiment: competitive FP assay, BRD2 BD1 -/+ FKBP12
Format: binding
Conditions: absence of FKBP12; read-out: Binding to BRD2BD1 - FKBP12 Kd
Field: Kd. Provide a value for each of the compounds that follow.
Respond numerically; units are µM and should not be typed.

Provide one value: measured Kd of Cc1sc2c(c1C)C(c1ccc(Cl)cc1)=NC(CC(=O)NCCOCCn1cc(COCC3CN(Cc4ccccn4)C(=O)C4CCCC3N4S(=O)(=O)c3cc(Cl)cc(Cl)c3)nn1)c1nnc(C)n1-2 (stereo not shown)
0.26

Provide one value: measured Kd of Cc1sc2c(c1C)C(c1ccc(Cl)cc1)=NC(CC(=O)N1CCC3(CC1)CC(n1cc(C4CN(Cc5ccccn5)C(=O)C5CCCC4N5S(=O)(=O)c4cc(Cl)cc(Cl)c4)nn1)C3)c1nnc(C)n1-2 (stereo not shown) [a13c]
3.4

Provide one value: measured Kd of Cc1sc2c(c1C)C(c1ccc(Cl)cc1)=NC(CC(=O)NCCOCCn1cc(COCC3CN(C(C)c4ccccn4)C(=O)C4CCCC3N4S(=O)(=O)c3cc(Cl)cc(Cl)c3)nn1)c1nnc(C)n1-2 (stereo not shown)
0.61

Provide one value: measured Kd of Cc1sc2c(c1C)C(c1ccc(C#CCNC(=O)COCCn3cc(C4CN(Cc5ccccn5)C(=O)C5CCCC4N5S(=O)(=O)c4cc(Cl)cc(Cl)c4)nn3)cc1)=NC(CC(=O)OC(C)(C)C)c1nnc(C)n1-2 (stereo not shown)
0.074

* * *

Target: FKBP12 (Homo sapiens, UniProt P62942)
Sequence (P62942 whole entry): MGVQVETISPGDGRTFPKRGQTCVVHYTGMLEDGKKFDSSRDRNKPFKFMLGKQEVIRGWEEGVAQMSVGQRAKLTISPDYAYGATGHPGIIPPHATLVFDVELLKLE
Assay: NanoBRET FKBP12 in intact HEK293 cells
Field: IC50. Provide a value for each of the molecules that follow.
Respond numerically; units are nM and should not be typed.

Provide one value: measured IC50 of C=C[C@H]1CN(Cc2ccccn2)C(=O)[C@@H]2CCC[C@H]1N2S(=O)(=O)c1ccc(-c2cn(CCOCCOCCNC(=O)C[C@@H]3N=C(c4ccc(Cl)cc4)c4c(sc(C)c4C)-n4c(C)nnc43)nn2)c(Cl)c1
170

Provide one value: measured IC50 of Cc1sc2c(c1C)C(c1ccc(C#CCNC(=O)COCCn3cc(COCC4CN(Cc5ccccn5)C(=O)C5CCCC4N5S(=O)(=O)c4cc(Cl)cc(Cl)c4)nn3)cc1)=NC(CC(=O)OC(C)(C)C)c1nnc(C)n1-2 (centres unmarked)
15

Provide one value: measured IC50 of Cc1sc2c(c1C)C(c1ccc(C#CCNC(=O)COCCn3cc(C4CN(Cc5ccccn5)C(=O)C5CCCC4N5S(=O)(=O)c4cc(Cl)cc(Cl)c4)nn3)cc1)=NC(CC(=O)OC(C)(C)C)c1nnc(C)n1-2 (centres unmarked)
29

Provide one value: measured IC50 of Cc1sc2c(c1C)C(c1ccc(Cl)cc1)=NC(CC(=O)N1CCC(CN3CCC(Cn4cc(COCC5CN(Cc6ccccn6)C(=O)C6CCCC5N6S(=O)(=O)c5cc(Cl)cc(Cl)c5)nn4)CC3)CC1)c1nnc(C)n1-2 (centres unmarked)
228

Provide one value: measured IC50 of Cc1sc2c(c1C)C(c1ccc(Cl)cc1)=NC(CC(=O)N1CCN(CCCCn3cc(COCC4CN(Cc5ccccn5)C(=O)C5CCCC4N5S(=O)(=O)c4cc(Cl)cc(Cl)c4)nn3)CC1)c1nnc(C)n1-2 (centres unmarked)
141

Numbers sourced from paper PMC13586308.
